Please go through the items and note down their EC50.
tested on: HIV-IIIb (MT-4 cells); assay: Test A: Antiviral Assays in MT4 Cells; type: cell-based; details: Human immunodeficiency virus 1, IIIB, MT4, 120 h, MT-4 cells infected with HIV-IIIb (0.004 m.o.i.), 5 days incubation, CellTiter-Glo readout; read-out: EC50
Quote the value and follow it with the unit of measurement.

For the compound Cc1cc2nc(C(=O)NCCc3ccccc3)sc2c(-c2ccc3c4c(ccnc24)CCO3)c1[C@H](OC(C)(C)C)C(=O)O (atropisomer, axis not shown) [Compound 98] , what EC50 is on record? 2510 nM

Data request, read-out EC50, for Cc1cc2nc(C3CC3)sc2c(-c2ccc3c4c(cccc24)CCO3)c1[C@H](OC(C)(C)C)C(=O)O [Compound 85] 66.4 nM

Field request: EC50 | item: CNC(=O)c1nc2cc(C)c([C@H](OC(C)(C)C)C(=O)O)c(-c3ccc4c5c(ccnc35)CCO4)c2s1 (atropisomer, axis not shown) [Compound 97] 1240 nM

---

system: HIV-IIIb (MT-4 cells); experiment: Test A: Antiviral Assays in MT4 Cells; assay type: cell-based; settings: Human immunodeficiency virus 1, IIIB, MT4, 120 h, MT-4 cells infected with HIV-IIIb (0.004 m.o.i.), 5 days incubation, CellTiter-Glo readout; read-out: EC50
metric name: EC50 (nM)
Give the quantity in nM, number only.

Request body: readout EC50, system HIV-IIIb (MT-4 cells), query Cc1cc2nc(C3CC3)sc2c(-c2ccc(Cl)cc2)c1[C@H](OC(C)(C)C)C(=O)O [Compound 10] . Return the value. 121

Notebook: pull reported EC50 for HIV-IIIb (MT-4 cells), entry Cc1cc2nc(OC(C)C)sc2c(-c2ccc3c4c(ccnc24)CCO3)c1[C@H](OC(C)(C)C)C(=O)O (atropisomer, axis not shown) [Compound 70] 80.8

Query for HIV-IIIb (MT-4 cells): what EC50 does the record show for CCc1nc2cc(C)c([C@H](OC(C)(C)C)C(=O)O)c(-c3ccc(Cl)cc3)c2s1 [Compound 9] ? 118

Lab note: need EC50 for Cc1cc2nc(N(C)C)sc2c(-c2ccc3c4c(ccnc24)CCO3)c1[C@H](OC(C)(C)C)C(=O)O [Compound 42] on HIV-IIIb (MT-4 cells), anyone have it? 10.3

Lab note: need EC50 for CCN(C)c1nc2cc(C)c([C@H](OC(C)(C)C)C(=O)O)c(-c3ccc4c5c(ccnc35)CCO4)c2s1 (atropisomer, axis not shown) [Compound 44] on HIV-IIIb (MT-4 cells), anyone have it? 18.7

API: value(readout= EC50, system= HIV-IIIb (MT-4 cells), query= COc1ccc(CNC(=O)c2nc3cc(C)c([C@H](OC(C)(C)C)C(=O)O)c(-c4ccc5c6c(ccnc46)CCO5)c3s2)cc1 (atropisomer, axis not shown) [Compound 99] ) 560

Provide value of EC50 for this record tested with HIV-IIIb (MT-4 cells): Cc1cc2c(sc(=O)n2Cc2ccccc2C(F)(F)F)c(-c2ccc3c4c(ccnc24)CCO3)c1[C@H](OC(C)(C)C)C(=O)O (atropisomer, axis not shown) [Compound 71] 984

Notebook entry, HIV-IIIb (MT-4 cells) assay: EC50 of Cc1cc2nc(C(N)=O)sc2c(-c2ccc3c4c(ccnc24)CCO3)c1[C@H](OC(C)(C)C)C(=O)O [Compound 40] = ? 722

// lookup EC50 | system=HIV-IIIb (MT-4 cells) | key= Cc1nc2cc(C)c([C@H](OC(C)(C)C)C(=O)O)c(-c3ccc(Cl)cc3)c2s1 [Compound 7] 257

Write down the reported EC50 of Cc1cc2c(sc(=O)n2Cc2cccc(C(F)(F)F)c2)c(-c2ccc3c4c(ccnc24)CCO3)c1[C@H](OC(C)(C)C)C(=O)O (atropisomer, axis not shown) [Compound 73] , test system: HIV-IIIb (MT-4 cells). 52.2

Form entry - test system: HIV-IIIb (MT-4 cells); read-out: EC50; compound: Cc1cc2ncsc2c(-c2ccc(Cl)cc2)c1[C@H](OC(C)(C)C)C(=O)O [Compound 5L] 2950

# get_value(readout= EC50, system= HIV-IIIb (MT-4 cells)) for CCN(CC)c1nc2cc(C)c([C@H](OC(C)(C)C)C(=O)O)c(-c3ccc4c5c(ccnc35)CCO4)c2s1 (atropisomer, axis not shown) [Compound 45] 67

HIV-IIIb (MT-4 cells) / EC50 / Cc1cc2nc(C(=O)C3=CCC3)sc2c(-c2ccc(Cl)cc2)c1[C@H](OC(C)(C)C)C(=O)O [Compound 14b] : value? 480

So what EC50 did Cc1cc2nc(N(C)C)sc2c(-c2ccc(Cl)cc2)c1[C@H](OC(C)(C)C)C(=O)O [Compound 12] get with HIV-IIIb (MT-4 cells)? 113

Observed EC50 on HIV-IIIb (MT-4 cells) for Cc1cc2nc(C3CC3)sc2c(-c2ccc3c4c(ccnc24)CCO3)c1[C@H](OC(C)(C)C)C(=O)O [Compound 22] , please. 170

Each recorded value in this set is attributed to patent US9879023B2.
